experiment: physchem; settings: 37 °C, pH 7.4, aqueous buffer, thermodynamic from solid
PROPERTY MEASURED: solubility (µM)

chem_smiles=O=C(Nc1ccccc1C(=O)Nc1ccccc1C(=O)O)c1ccccc1 endpoint_result=930
chem_smiles=O=C(Nc1cc(F)c(F)cc1C(=O)Nc1ccccc1C(=O)O)c1ccccc1F endpoint_result=130

====

assay: in vivo; settings: female, BALB/C, mouse, ip, 10 mg/kg
PROPERTY MEASURED: Cmax (µM)

chem_smiles=O=C(Nc1cc(F)c(F)cc1C(=O)Nc1ccccc1C(=O)O)c1ccccc1F unit_of_measurement=µM endpoint_result=28

====

assay: in vivo; conditions: female, BALB/C, mouse, po, 2 mg/kg
PROPERTY MEASURED: half-life

compound="O=C(Nc1cc(F)c(F)cc1C(=O)Nc1ccccc1C(=O)O)c1ccccc1F [Benzavir-2]" endpoint_result="3 h"

====

experiment: in vivo; settings: female, BALB/C, mouse, po, 10 mg/kg
PROPERTY MEASURED: Tmax (min)

chem_smiles=O=C(Nc1cc(F)c(F)cc1C(=O)Nc1ccccc1C(=O)O)c1ccccc1F endpoint_result=30

====

test: in vivo; settings: female, BALB/C, mouse, iv, 1 mg/kg
PROPERTY MEASURED: Vd (L/kg)

chem_smiles=O=C(Nc1cc(F)c(F)cc1C(=O)Nc1ccccc1C(=O)O)c1ccccc1F property_measured=Vd endpoint_result=29

====

tested on: rRVFVΔNSs::Katushka; test: microbe, parasite or virus in culture; type: cell-based; conditions: Rift Valley fever virus, A549, 16 h, read-out: EC50, inhibition of RVFV RNA expression (qPCR)
pEC50: −log10 of the molar value.
PROPERTY MEASURED: pEC50

compound="O=C(Nc1cc(F)c(F)cc1C(=O)Nc1ccccc1C(=O)O)c1ccccc1F [Benzavir-2]" endpoint_result=5.77

====

assay: in vitro; conditions: human, Caco-2, pH 7.4
PROPERTY MEASURED: Papp A→B (×10⁻⁶ cm/s)

compound="O=C(Nc1ccccc1C(=O)Nc1ccccc1C(=O)O)c1ccccc1 [Benzavir-1]" unit_of_measurement="×10⁻⁶ cm/s" endpoint_result=32
compound="O=C(Nc1cc(F)c(F)cc1C(=O)Nc1ccccc1C(=O)O)c1ccccc1F [Benzavir-2]" unit_of_measurement="×10⁻⁶ cm/s" endpoint_result=55

====

assay: in vivo; details: female, BALB/C, mouse, ip, 2 mg/kg
PROPERTY MEASURED: half-life

chem_smiles=O=C(Nc1cc(F)c(F)cc1C(=O)Nc1ccccc1C(=O)O)c1ccccc1F endpoint_result="1.4 h"

====

experiment: in vivo; conditions: female, BALB/C, mouse, ip, 2 mg/kg
PROPERTY MEASURED: Tmax (min)

chem_smiles=O=C(Nc1cc(F)c(F)cc1C(=O)Nc1ccccc1C(=O)O)c1ccccc1F property_measured=Tmax endpoint_result=15

====

experiment: physchem; details: pH 7.4
PROPERTY MEASURED: logD

compound="O=C(Nc1ccccc1C(=O)Nc1ccccc1C(=O)O)c1ccccc1 [Benzavir-1]" endpoint_result=1.52
compound="O=C(Nc1cc(F)c(F)cc1C(=O)Nc1ccccc1C(=O)O)c1ccccc1F [Benzavir-2]" endpoint_result=1.56

====

experiment: in vivo; conditions: female, BALB/C, mouse, po, 10 mg/kg
PROPERTY MEASURED: half-life (h)

molecule="O=C(Nc1cc(F)c(F)cc1C(=O)Nc1ccccc1C(=O)O)c1ccccc1F [Benzavir-2]" unit_of_measurement=h endpoint_result=3

====

test: in vitro; details: human, Caco-2, pH 7.4
PROPERTY MEASURED: Papp B→A (×10⁻⁶ cm/s)

chem_smiles=O=C(Nc1ccccc1C(=O)Nc1ccccc1C(=O)O)c1ccccc1 property_measured="Papp B→A" endpoint_result=31
chem_smiles=O=C(Nc1cc(F)c(F)cc1C(=O)Nc1ccccc1C(=O)O)c1ccccc1F property_measured="Papp B→A" endpoint_result=45

====

test: in vivo; details: female, BALB/C, mouse, iv, 2 mg/kg
PROPERTY MEASURED: half-life (min)

chem_smiles=O=C(Nc1cc(F)c(F)cc1C(=O)Nc1ccccc1C(=O)O)c1ccccc1F unit_of_measurement=min endpoint_result=42

====

assay: in vivo; conditions: female, BALB/C, mouse, po, 2 mg/kg
PROPERTY MEASURED: Tmax (min)

chem_smiles=O=C(Nc1cc(F)c(F)cc1C(=O)Nc1ccccc1C(=O)O)c1ccccc1F endpoint_result=30

====

assay: in vitro; conditions: mouse, microsomes, pH 7.4
PROPERTY MEASURED: microsomal CLint (µL/min/mg)

chem_smiles=O=C(Nc1cc(F)c(F)cc1C(=O)Nc1ccccc1C(=O)O)c1ccccc1F endpoint_result=3.8

====

test: in vivo; settings: female, BALB/C, mouse, iv, 1 mg/kg
PROPERTY MEASURED: clearance

compound="O=C(Nc1cc(F)c(F)cc1C(=O)Nc1ccccc1C(=O)O)c1ccccc1F [Benzavir-2]" property_measured=clearance endpoint_result="9.33 mL/min"

====

test: in vivo; details: female, BALB/C, mouse, iv, 4 mg/kg
PROPERTY MEASURED: Vd

chem_smiles=O=C(Nc1cc(F)c(F)cc1C(=O)Nc1ccccc1C(=O)O)c1ccccc1F endpoint_result="35 L/kg"

====

assay: physchem; conditions: plasma or biological fluid
PROPERTY MEASURED: solubility

chem_smiles=O=C(Nc1cc(F)c(F)cc1C(=O)Nc1ccccc1C(=O)O)c1ccccc1F endpoint_result="> 150 µM"

====

assay: in vivo; conditions: female, BALB/C, mouse, iv, 1 mg/kg
PROPERTY MEASURED: Cmax

chem_smiles=O=C(Nc1cc(F)c(F)cc1C(=O)Nc1ccccc1C(=O)O)c1ccccc1F endpoint_result="7.8 µM"

====

assay: in vivo; settings: female, BALB/C, mouse, iv, 1 mg/kg
PROPERTY MEASURED: half-life (min)

chem_smiles=O=C(Nc1cc(F)c(F)cc1C(=O)Nc1ccccc1C(=O)O)c1ccccc1F unit_of_measurement=min endpoint_result=42

====

assay: in vitro; conditions: mouse, plasma, pH 7.4
PROPERTY MEASURED: fraction unbound

chem_smiles=O=C(Nc1cc(F)c(F)cc1C(=O)Nc1ccccc1C(=O)O)c1ccccc1F endpoint_result=0.0076

====

assay: in vitro; settings: both, human, plasma, pH 7.4
PROPERTY MEASURED: fraction unbound

compound="O=C(Nc1cc(F)c(F)cc1C(=O)Nc1ccccc1C(=O)O)c1ccccc1F [Benzavir-2]" endpoint_result=0.0004
compound="O=C(Nc1ccccc1C(=O)Nc1ccccc1C(=O)O)c1ccccc1 [Benzavir-1]" endpoint_result=0.0003

====

test: in vivo; details: female, BALB/C, mouse, ip, 10 mg/kg
PROPERTY MEASURED: Tmax (min)

chem_smiles=O=C(Nc1cc(F)c(F)cc1C(=O)Nc1ccccc1C(=O)O)c1ccccc1F endpoint_result=15

====

experiment: in vivo; details: female, BALB/C, mouse, iv, 4 mg/kg
PROPERTY MEASURED: clearance (mL/min)

compound="O=C(Nc1cc(F)c(F)cc1C(=O)Nc1ccccc1C(=O)O)c1ccccc1F [Benzavir-2]" unit_of_measurement=mL/min endpoint_result=11.3

Values from paper PMC5792431
